Source: patent US8017612B2

- Measured On: HCV polymerase (NS5B) type 1a (Hepatitis C virus genotype 1a, UniProt P26664)
- Construct: made in house; host or cells: Escherichia coli (by the 'similar method' of the 1b enzyme)
- Assay: Assay of enzyme (HCV polymerase) inhibitory activity, type 1a enzyme
- Type: biochemical, HCV type 1a (cloned from the blood of patients)
- Measurement Context: HCV polymerase inhibitory activity IC50, 1a, type 1a enzyme
pIC50: −log10 of the molar value.
Measurement Kind: pIC50

Q: Which pIC50 value belongs to O=C(NCc1ccc(OC(F)F)cc1F)[C@H]1CN(c2nc3nc(C4CC4)ncc3s2)CCN1S(=O)(=O)c1ccc(OC(F)(F)F)cc1 [Example 1045] ?
A: > 7.00

Q: Which pIC50 value belongs to CCCn1ccc(CNC(=O)[C@H]2CN(c3cnc4cncnc4n3)CCN2S(=O)(=O)c2ccc(OC(F)(F)F)cc2)cc1=O [Example 680] ?
A: < 6.00

Q: Which pIC50 value belongs to CCC(F)(F)c1ccc(CNC(=O)[C@H]2CN(c3cnc4cncnc4n3)CCN2S(=O)(=O)c2cc3ccccc3s2)cc1 [Example 738] ?
A: > 7.00

Q: Which pIC50 value belongs to CNC(=O)c1nncc2sc(N3CCN(S(=O)(=O)c4ccc(OC(F)(F)F)cc4)[C@@H](C(=O)NCc4ccc(OC(F)(F)F)cc4)C3)nc12 [Example 916] ?
A: > 7.00

Q: Which pIC50 value belongs to O=C(O)Cn1ncc2sc(N3CCN(S(=O)(=O)c4ccc(OC(F)(F)F)cc4)[C@@H](C(=O)NCc4ccc(OC(F)(F)F)cc4)C3)nc2c1=O [Example 1106] ?
A: > 7.00

Q: Which pIC50 value belongs to CCCc1ccc(CNC(=O)[C@H]2CN(c3cnc(C(=O)O)cn3)CCN2S(=O)(=O)c2ccc(C(C)(C)C)cc2)cc1 [Example 700] ?
A: > 7.00
